system: Mycobacterium tuberculosis; experiment: Antimycobacterial activity against Mycobacterium tuberculosis H37Rv; format: functional
test readout: MIC
Dear colleague, please send the value followed by its unit.

1) S=C(NN=C(c1ccccc1)c1ccccc1)Nc1ncc(C2CCC2)o1 ... 0.1 µg/mL
2) C/C(=N\N=C(/S)Nc1ncc(C2CCC2)o1)c1ccc(O)cc1 ... 3.12 µg/mL
3) COc1ccc(/C=N/N=C(\S)Nc2ncc(C3CCC3)o2)cc1 ... 6.25 µg/mL

Attention now shifts to the item below.
Returns the measured MIC for the input compound. Input: O=[N+]([O-])c1ccccc1/C=N/N=C(\S)Nc1ncc(C2CCC2)o1
0.78 µg/mL
